Assay: in vivo
Parameters: species or system Beagle Dogs
Settings: both sexes, Beagle, dog, po, 22 mg/kg, MRTINF of CH2107 (Molnupiravir)
measured_quantity: MRT inf (min)
Give just the number in min; leave the unit off.

So for CC(C)C(=O)OC[C@H]1O[C@@H](n2ccc(NO)nc2=O)[C@H](O)[C@@H]1O , the logged MRT inf turned out to be 38.9

====

Assay: in vivo
Set-up: species or system Beagle Dogs
Conditions: both sexes, beagle, dog, po, 20 mg/kg, Plasma concentration of EX-2/CH2101
measured_quantity: concentration at 0.25 hr (ng/mL)
Give just the number in ng/mL; leave the unit off.

So for CC(=O)ONc1ccn([C@@H]2O[C@H](CO)[C@@H](O)[C@H]2O)c(=O)n1 , the logged concentration at 0.25 hr turned out to be 12.8
